Assay: NCI Yeast Anticancer Drug Screen. Data for the mlh1 rad18 strain (AID 175)
Details: S. cerevisiae mlh1 rad18 strain growth inhibition; at 50.0 µM
About 79,000 compounds went through this panel and 15% of them were active in at least one assay; those are over-represented in the sample as a whole. Activity calls are given as the source filed them. Rule as the data show it: active = growth inhibition above about 70%; inactive = the rest.
Please state which outcome applies, choosing from active, inactive

Illustrative cases are given below, each with its answer.
{"COMPOUND": "CCCN(CCC)c1ccc(Cc2ccc(N(CCC)CCC)cc2N)c(N)c1", "LABEL_CLASS": "active"}
{"COMPOUND": "N=C(N)SCc1ccc(Br)cc1", "LABEL_CLASS": "inactive"}
{"COMPOUND": "O=CNc1ccc(Oc2ccc(NC=O)cc2)cc1", "LABEL_CLASS": "inactive"}
{"COMPOUND": "[Cl][Sn]([O][Sn]([Cl])([c]1ccccc1)[CH]1CCCCC1)([c]1ccccc1)[CH]1CCCCC1 (stereo unspecified)", "LABEL_CLASS": "active"}
{"COMPOUND": "O=C(O)C1CCC(CC2CC3CCC2C3)CC1 (stereo unspecified)", "LABEL_CLASS": "inactive"}

Kindly review the next compound as well.
Request: Please state the recorded outcome for this compound: COC(OC)C1C2C3C=CC(C4C(=O)OC(=O)C34)C12 (stereo unspecified)
Result: active
